experiment: protection from phage-mediated lysis, alamar blue read-out – E. coli UTI89, K1F phage, bacterial capsule biogenesis inhibitors (AID 488966); conditions: 2 h; at 100 µM, active compounds read high unless noted;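 also: capsule biogenesis inhibitors block K1F phage lysis so surviving cells raise fluorescence; higher fluorescence means more inhibition of phage lysis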
In all, about 340,000 compounds went through this assay and about 55 (0.02%) were called active. A selection follows. Potency and affinity values are given separately.
The following compounds are shown together with reported inhibition values.

{"compound": "O=C(CSc1nnc(CNC(=O)c2ccco2)o1)Nc1nc2ccccc2s1", "inhibition, %": 0.07}
{"compound": "Cc1cc(C)c(NC(=O)COc2nncc3ccccc23)c(C)c1", "inhibition, %": -1.44}
{"compound": "Cc1ccc(NC(=O)CCC(=O)NNC(=O)COc2cccc3ccccc23)c(C)c1", "inhibition, %": -0.27}
{"compound": "O=C(NCc1ccccc1Cl)c1cc([N+](=O)[O-])ccc1Cl", "inhibition, %": 0.11}
{"compound": "CC(=O)c1ccccc1OCCCOc1cccc2cccnc12", "inhibition, %": 0.48}
{"compound": "CC1(c2ccccc2)NC(=O)N(NC(=O)CSc2n[nH]c(N)n2)C1=O (stereo unspecified)", "inhibition, %": 0.72}
{"compound": "CC(C)C(NC(=O)c1ccccc1F)C(=O)OCC(=O)c1ccc(F)cc1 (stereo unspecified)", "inhibition, %": -0.86}
{"compound": "O=C(CCCc1nc2ccccc2s1)Nc1ccc(N2CCOCC2)cc1", "inhibition, %": 0.19}
{"compound": "CS(=O)(=O)N(CC(=O)NN=C1CCCCCC1)c1ccc(Oc2ccccc2)cc1", "inhibition, %": 0.37}
{"compound": "COc1ccc(C(=O)OCC(=O)NC(C)CCc2ccccc2)cc1OC (stereo unspecified)", "inhibition, %": -0.14}
{"compound": "O=C(CCc1ccccc1)N=C1SC2CS(=O)(=O)CC2N1c1ccc(F)cc1 (stereo unspecified)", "inhibition, %": 0.07}

* * *

assay: protection from phage-mediated lysis, alamar blue read-out – E. coli UTI89, K1F phage, bacterial capsule biogenesis inhibitors (AID 488966); details: 2 h; at 100 µM, active compounds read high unless noted;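 also: capsule biogenesis inhibitors block K1F phage lysis so surviving cells raise fluorescence; higher fluorescence means more inhibition of phage lysis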
Among all 340,000 compounds or so, about 55 (0.02%) were called active. A selection follows. Potency and affinity values are given separately.
resultType: inhibition (%)

{"compound": "O=C(NCc1cc([N+](=O)[O-])ccc1O)c1cccnc1Sc1ccc(Cl)cc1", "reading": 7.97}
{"compound": "CCCCS(=O)CC(COC)OC(=O)c1ccccc1 (stereo unspecified)", "reading": 0.21}
{"compound": "CCOc1cc(C2NC(=O)c3ccccc3O2)ccc1OC(C)C (stereo unspecified)", "reading": 2.06}
{"compound": "CC(C)/C=C1\\CCc2c([nH]c3ccccc23)C1=O", "reading": 0}
{"compound": "CCCOc1ccc(C2c3c(oc4ccccc4c3=O)C(=O)N2CCCN2CCOCC2)cc1 (stereo unspecified)", "reading": 3.1}
{"compound": "N=C(N)c1ccc(O)cc1", "reading": -1.49}
{"compound": "O=C(COC(=O)c1ccccn1)Nc1ncc(C(F)(F)F)cc1Cl", "reading": 1.67}
{"compound": "Cc1ccc(CC(NC(=O)c2ccccc2)C(=O)NC(CC(C)C)C(=O)O)cc1 (stereo unspecified)", "reading": 0.84}
{"compound": "Cc1cc2oc3c(c(=O)c2cc1C)C(c1ccc(C(C)C)cc1)N(CCCN1CCOCC1)C3=O (stereo unspecified)", "reading": 10.9}
{"compound": "Cc1cc(C)c2sc(NNC(=O)C3COc4ccccc4O3)nc2c1 (stereo unspecified)", "reading": 3.07}
{"compound": "Cc1cc2oc3c(c(=O)c2cc1C)C(c1ccc(F)cc1)N(CCCN1CCOCC1)C3=O (stereo unspecified)", "reading": 10.1}
